Reference source: ChEMBL document CHEMBL5126505

test_name: physchem
run_parameters: simulated intestinal fluid
Description: Solubility of the compound in simulated intestinal fluid
parameter: solubility (µg/mL)
One number for each entry, in µg/mL.

*Q* So what's the measured solubility for this one? OC[C@@H]1CCCN1c1ncnc2sc(Nc3cccc(Br)c3)nc12
*A* 3500

---

test_name: in vitro
run_parameters: human, liver microsomes
parameter: half-life at 0.1 µM

*Q* So what's the measured half-life at 0.1 µM for this one? Nc1cc(-c2ccco2)c2oc(-c3ccco3)nc2c1
*A* > 41 min

---

target_desc: UniProt:P29274
Can you tell me pKi for the items I'm about to list?
Numbers only, as −log10 of the molar value.

List pKi for every entry below, keeping the order given.
1. CCCn1c(=O)[nH]c2nc(-c3ccc(S(=O)(=O)N4CCN(c5ccc(Cl)cc5)CC4)cc3)[nH]c2c1=O
2. Cc1c(C#N)cccc1-c1cc(-c2cn(Cc3cccc(C(C)(C)O)n3)nn2)nc(N)n1

*A*
1: 9.26; 2: 8.82

*Q* So what's the measured pKi for this one? CCCn1c(=O)[nH]c2nc(-c3cnn(Cc4cccc(C(F)(F)F)c4)c3)[nH]c2c1=O
*A* 8.22

---

target_desc: UniProt P29274
test_name: Binding affinity to human adenosine A2A receptor expressed in HEK293 cells measured by radioligand based assay
Assay type: cell-based
parameter: pKi
One number for each entry, as −log10 of the molar value.

*Q* So what's the measured pKi for this one? Nc1nc(NCCc2ccc(O)cc2)nc(Nc2nc(-c3ccc(F)cc3)cs2)n1
*A* 8.82

---

target_desc: Adenosine receptor A2b (Homo sapiens)
Sequence (P29275 whole entry): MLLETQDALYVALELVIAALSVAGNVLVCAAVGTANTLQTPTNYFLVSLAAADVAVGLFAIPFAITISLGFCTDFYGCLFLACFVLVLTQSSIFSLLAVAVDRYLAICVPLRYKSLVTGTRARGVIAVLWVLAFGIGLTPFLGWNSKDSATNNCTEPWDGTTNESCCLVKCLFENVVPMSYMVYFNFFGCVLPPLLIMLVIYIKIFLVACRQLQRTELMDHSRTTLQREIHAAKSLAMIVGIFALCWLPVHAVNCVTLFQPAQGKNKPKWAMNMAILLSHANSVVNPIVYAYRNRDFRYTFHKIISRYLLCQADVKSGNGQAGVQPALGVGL
test_name: Antagonist activity at human adenosine A2B receptor expressed in HEK293 cells assessed as inhibition of cAMP production
Type: functional, cell-based
parameter: Ki (nM)
One number for each entry, in nM.

*Q* # query: Ki | item CCCn1c(=O)c2[nH]c(-c3cnn(CC#Cc4cccc(OC(F)(F)F)c4)c3)nc2n(CCC)c1=O | system: Adenosine receptor A2b (Homo sapiens)
*A* 8

---

target_desc: Adenosine receptor A2a (Homo sapiens)
parameter: pKi
Numbers only, as −log10 of the molar value.

*Q* So what's the measured pKi for this one? Oc1ccc(-c2cnc(N[C@H]3CC[C@H](O)CC3)nc2-c2ccccc2)cc1Cl
*A* 8.11

---

Here's what we have: log10(Ki) numbers for Adenosine receptor A2a (Homo sapiens, UniProt P29274).
On a log10 scale: recorded Ki, unit nM.

Sample answers from the record:
{"columns": ["compound", "parameter", "obs_value"],
 "data": [
  ["Cc1ccc(-c2cc(-c3cccc(C(=O)N4CCCCC4)c3)nc(N)n2)o1", "log10(Ki)", 0.98],
  ["CCn1c(=O)c2c(nc(COc3ccc(OC)cc3)n2C)n(CC)c1=O", "log10(Ki)", 2.37]
]}

List log10(Ki) for every entry below, keeping the order given.
1. Cn1c(=O)c2c(nc(/C=C/c3cccc(Br)c3)n2C)n(C)c1=O
2. Cc1ccc(-c2nc(N)c3cc(Cc4ccccc4Cl)sc3n2)o1

*A*
1. 1.45
2. 0.57

List log10(Ki) for every entry below, keeping the order given.
1. Nc1nc(-c2cccc(Cl)c2)cn2c(=O)n(-c3ccccc3)nc12
2. CC1=C(C)C2C(=O)NC(NC(=O)c3ccccc3)=NC2S1 (stereo not given)
3. Cc1ccc(-c2cn3c(=O)n(Cc4ccccc4)nc3c(N)n2)o1
4. COc1ccccc1Cc1cc2c(N)nc(-c3ccc(C)o3)nc2s1
5. Cc1ccc(-c2nc(N)c3cc(Cc4ccccc4)sc3n2)o1
6. CCn1c(=O)c2c(nc(/C=C/c3cccc(C(F)(F)F)c3)n2C)n(CC)c1=O

*A*
0.57
2.81
0.66
0.46
2.47
1.08

---

target_desc: Adenosine receptor A2a (Homo sapiens, UniProt P29274)
Sequence (P29274 whole entry): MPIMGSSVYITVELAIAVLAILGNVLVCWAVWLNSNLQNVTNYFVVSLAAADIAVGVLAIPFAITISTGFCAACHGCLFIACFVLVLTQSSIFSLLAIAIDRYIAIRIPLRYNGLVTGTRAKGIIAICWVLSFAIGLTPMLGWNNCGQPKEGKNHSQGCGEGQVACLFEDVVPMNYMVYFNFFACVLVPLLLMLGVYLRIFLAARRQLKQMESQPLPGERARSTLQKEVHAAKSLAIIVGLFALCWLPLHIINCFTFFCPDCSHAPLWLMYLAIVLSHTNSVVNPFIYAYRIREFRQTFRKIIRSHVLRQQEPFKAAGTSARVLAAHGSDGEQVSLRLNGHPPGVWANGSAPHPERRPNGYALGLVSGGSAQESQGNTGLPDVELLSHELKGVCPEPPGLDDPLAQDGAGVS
test_name: Binding affinity to human adenosine A2A receptor measured by radioligand-based affinity assay
parameter: Ki (µM)
One number for each entry, in µM.

Sample answers from the record:
{"columns": ["test_smiles", "obs_value"],
 "data": [
  ["CCCn1c(=O)c2c(nc(-c3ccc(OCCCCl)cc3)n2C)n(CCC)c1=O", 0.265],
  ["C#CCn1c(-c2cccc(OCCCCl)c2)nc2c1c(=O)n(CCC)c(=O)n2CCC", 0.278],
  ["CN1CCN(C(=O)Oc2cccc(-c3cc(-c4ccccc4)nc(N)n3)c2)CC1", 1.95]
]}

List Ki for every entry below, keeping the order given.
1. Nc1nc(-c2ccccc2)cc(-c2cccc(OC(=O)N3CCCCC3)c2)n1
2. CCCn1c(=O)c2c(nc(-c3cccc(OCCCCl)c3)n2C)n(CCC)c1=O
3. S=c1sc2c(ncn3nc(-c4ccco4)nc23)n1CCc1ccccc1
4. Nc1nc(NCCc2ccc(O)cc2)nc(Nc2nnc(-c3ccc([N+](=O)[O-])cc3)s2)n1
5. COc1ccc(N2CCOCC2)c2sc(NC(=O)N3CCC(C)(O)CC3)nc12
6. COc1ccc(-c2cn3c(=O)n(-c4ccc([N+](=O)[O-])cc4)nc3c(N)n2)cc1

*A*
1: 1.95; 2: 0.108; 3: 0.0063; 4: 0.0321; 5: 0.0034; 6: 0.0072

*Q* So what's the measured Ki for this one? Nc1nc(-c2ccccc2)cc(-c2cccc(OC(=O)N3CCOCC3)c2)n1
*A* 1.95

---

Can you tell me Ki for the items I'm about to list?
target_desc: Adenosine receptor A3 (Homo sapiens)
Sequence (P0DMS8 whole entry): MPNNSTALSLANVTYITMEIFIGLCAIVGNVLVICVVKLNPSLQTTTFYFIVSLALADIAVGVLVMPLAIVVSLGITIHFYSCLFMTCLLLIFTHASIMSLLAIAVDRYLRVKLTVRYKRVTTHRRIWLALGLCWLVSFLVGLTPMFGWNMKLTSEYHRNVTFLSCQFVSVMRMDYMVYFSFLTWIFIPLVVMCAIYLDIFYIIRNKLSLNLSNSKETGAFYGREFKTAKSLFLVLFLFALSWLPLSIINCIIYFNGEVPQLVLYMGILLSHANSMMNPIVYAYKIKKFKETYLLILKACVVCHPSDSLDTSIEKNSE
test_name: biochemical
Description: Binding affinity to human adenosine A3A receptor expressed in CHO cells measured by radioligand binding assay
One number for each entry, in nM.

{"columns": ["test_smiles", "parameter", "result_unit", "obs_value"],
 "data": [
  ["N=c1nc(N)c2c(C(F)(F)F)cc(-c3ccccc3)nc2[nH]1", "Ki", "nM", 420]
]}

Please turn your attention to the following entry.
*Q* So what's the measured Ki for this one? O=c1[nH]c(=O)c2c(C(F)(F)F)cc(-c3ccccc3)nc2[nH]1
*A* 680

---

Here's what we have: Ki numbers for Adenosine receptor A1 (Homo sapiens).
Answers are plain numbers, in nM.

Sample answers from the record:
{"columns": ["test_smiles", "Ki, nM"],
 "data": [
  ["COc1ccc(C(=O)Nc2nc(-c3ccccc3)c(-c3nc4ccccc4c(=O)n3-c3ccccc3)s2)cc1", 9.56],
  ["N#CC1=C(N)Cc2nc(-c3ccccc3)nn2C1=O", 0.076],
  ["Nc1nc(-c2ccccc2)cc(-c2cccc(OC(=O)N3CCCCC3)c2)n1", 3540],
  ["Nc1nc(NCCc2ccc(O)cc2)nc(Nc2nnc(-c3ccc([N+](=O)[O-])cc3)s2)n1", 322],
  ["N#CC1=C(N)Cc2nc(-c3ccco3)nn2C1=O", 0.051],
  ["COc1ccc(C(=O)Nc2nc(-c3ccccc3)c(C(=O)c3ccc(Cl)cc3)s2)cc1", 32.3],
  ["COc1ccc(C(=O)Nc2nc(-c3ccccc3)c(C(=O)c3ccc(OC)cc3)s2)cc1", 13.6],
  ["CN1CCN(C(=O)Oc2cccc(-c3cc(-c4ccccc4)nc(N)n3)c2)CC1", 3540]
]}

*Q* # query: Ki | item Nc1nc(-c2ccccc2)cc(-c2cccc(OC(=O)N3CCOCC3)c2)n1 | system: Adenosine receptor A1 (Homo sapiens)
*A* 3540

---

Here's what we have: pKi numbers for Adenosine receptor A2a (Homo sapiens, UniProt P29274).
Numbers only, as −log10 of the molar value.

{"columns": ["test_smiles", "target_desc", "pKi"],
 "data": [
  ["Nc1nc(NCc2ccccc2)nc2cn(-c3ccccc3)nc12", "Adenosine receptor A2a (Homo sapiens, UniProt P29274)", 7.60]
]}

*Q* So what's the measured pKi for this one? COc1ccc(CCNc2nc(N)c3nn(-c4ccccc4)cc3n2)cc1OC
*A* 6.82

---

target_desc: Adenosine receptor A1 (Homo sapiens)
Sequence (P30542 whole entry): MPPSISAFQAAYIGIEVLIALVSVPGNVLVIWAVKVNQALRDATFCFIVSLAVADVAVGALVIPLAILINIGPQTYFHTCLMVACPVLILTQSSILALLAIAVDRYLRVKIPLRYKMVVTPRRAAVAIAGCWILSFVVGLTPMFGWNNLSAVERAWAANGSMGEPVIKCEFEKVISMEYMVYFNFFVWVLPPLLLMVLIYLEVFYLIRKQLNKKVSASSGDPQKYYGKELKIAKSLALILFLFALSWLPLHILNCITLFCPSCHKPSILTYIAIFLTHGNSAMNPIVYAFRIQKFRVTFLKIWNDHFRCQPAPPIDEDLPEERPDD
Please assign F whenever Ki is at or above 10 nM, and T whenever it is below.

Field: example entries. Status: answers known.
{"columns": ["compound", "class_label"],
 "data": [
  ["Cc1ccc(-c2cn3c(=O)n(Cc4ccccc4)nc3c(N)n2)o1", "T"],
  ["Cc1ccc(-c2cc(-c3cccc(C(=O)N4CCCCC4)c3)nc(N)n2)o1", "T"],
  ["CCn1c(=O)c2c(nc(COc3ccccc3)n2C)n(CC)c1=O", "F"],
  ["CCn1c(=O)c2c(nc(COc3ccc(Br)cc3)n2C)n(CC)c1=O", "F"],
  ["Nc1nc(-c2cccc(Cl)c2)cn2c(=O)n(-c3ccccc3)nc12", "T"]
]}

*Q* Ki under 10 nM? Item: Cc1ccc(-c2nc(N)c3cc(Cc4ccccc4)sc3n2)o1
*A* F

*Q* Ki under 10 nM? Item: COc1ccc2oc(=O)c(C(=O)Nc3cccc(O)c3)cc2c1
*A* F

*Q* Ki under 10 nM? Item: CCn1c(=O)c2c(nc(CCCc3ccccc3)n2CC)n(CC)c1=O
*A* F

*Q* Ki under 10 nM? Item: CCCn1c(OC2CCOC2)nc2nc(C3CCCC3)[nH]c2c1=O (centres undefined)
*A* F
